Below, each entry is listed with its recorded Emax.
Biological target: human μ-opioid receptor (OPRM1) (Homo sapiens, UniProt P35372)
Construct: host or cells: cAMP Hunter CHO-K1
Sequence (P35372 whole entry): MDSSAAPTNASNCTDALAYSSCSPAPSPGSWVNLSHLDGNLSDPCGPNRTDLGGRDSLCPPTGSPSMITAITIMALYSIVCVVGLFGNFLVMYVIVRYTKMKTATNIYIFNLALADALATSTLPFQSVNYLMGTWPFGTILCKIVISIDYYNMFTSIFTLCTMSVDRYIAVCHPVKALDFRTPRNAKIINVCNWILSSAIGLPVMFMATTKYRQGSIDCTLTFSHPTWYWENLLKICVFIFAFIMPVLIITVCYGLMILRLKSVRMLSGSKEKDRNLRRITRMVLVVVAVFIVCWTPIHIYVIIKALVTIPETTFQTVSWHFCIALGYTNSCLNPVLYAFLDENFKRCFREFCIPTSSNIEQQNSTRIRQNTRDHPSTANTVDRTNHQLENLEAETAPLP
Assay: cell-based
Assay type: cell-based
Conditions: read-out: MOR Agonist %Emax ± SEM
test_readout: Emax (%)

1) CC1C2Cc3ccc(O)cc3C1(C)CCN2CCc1ccc(C(F)(F)F)cc1 (stereo not drawn) ... 102
2) C=C1c2ccc(O)cc2[C@]2(C)CCN(CCc3ccccc3)[C@H]1[C@@H]2C [(−)-38] ... 101
3) CC1C2Cc3ccc(O)cc3C1(C)CCN2CCc1ccc(Cl)cc1Cl (stereo not drawn) ... 103
4) C[C@H]1[C@H]2Cc3ccc(O)cc3[C@]1(C)CCN2CCc1c[nH]c2ccccc12 ... 102
5) Cc1ccc(CCN2CCC3(C)c4cc(O)ccc4CC2C3C)cc1 (stereo not drawn) ... 103
6) C=C1c2ccc(O)cc2[C@@]2(C)CCN(CCc3ccccc3)[C@@H]1[C@H]2C [(+)-38] ... 102
7) CC1C2Cc3ccc(O)cc3C1(C)CCN2CCc1ccccc1C(F)(F)F (stereo not drawn) ... 102
8) CC1C2Cc3ccc(O)cc3C1(C)CCN2CCc1ccc(Cl)cc1 (stereo not drawn) ... 103
9) CC1C2Cc3ccc(O)cc3C1(C)CCN2CCc1ccc([N+](=O)[O-])cc1 (stereo not drawn) ... 101

---

Biological target: human δ-opioid receptor (OPRD1) (Homo sapiens, UniProt P41143)
Sequence (P41143 whole entry): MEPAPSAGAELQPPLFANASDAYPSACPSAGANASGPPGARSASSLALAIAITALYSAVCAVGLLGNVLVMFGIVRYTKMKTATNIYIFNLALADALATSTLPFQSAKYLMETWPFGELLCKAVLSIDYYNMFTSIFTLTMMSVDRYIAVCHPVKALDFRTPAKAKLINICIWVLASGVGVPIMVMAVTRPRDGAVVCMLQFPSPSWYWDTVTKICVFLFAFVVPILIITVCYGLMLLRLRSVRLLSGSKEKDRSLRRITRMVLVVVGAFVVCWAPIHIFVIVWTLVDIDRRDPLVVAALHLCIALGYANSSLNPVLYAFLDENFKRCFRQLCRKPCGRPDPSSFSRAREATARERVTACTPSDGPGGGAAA
Test: Forskolin-induced cAMP accumulation assay, DOR agonist mode
Known EC50 of a selection of molecules
test_readout: EC50

1. C[C@H]1[C@H]2Cc3ccc(O)cc3[C@]1(C)CCN2CCC1CCN(C)CC1 [Compound 28] ... > 10000 nM
2. CC1C2Cc3ccc(O)cc3C1(C)CCN2CCc1ccccc1F (centres unmarked) [Compound 8] ... 6 nM
3. CC1c2ccc(O)cc2[C@]2(C)CCN(CCc3ccccc3)[C@H]1[C@@H]2C (single isomer, unassigned; (-)) [(−)-39] ... 12.6 nM
4. C[C@@H]1[C@@H]2C(O)c3ccc(O)cc3[C@@]1(C)CCN2CCc1ccccc1 (single isomer, unassigned; (+)) [(+)-36] ... 1910 nM
5. Cc1ccc(CCN2CCC3(C)c4cc(O)ccc4CC2C3C)cc1 (centres unmarked) [Compound 19] ... 5 nM
6. CC1C2Cc3ccc(O)cc3C1(C)CCN2CCc1cccc(F)c1 (centres unmarked) [Compound 7] ... 11 nM
7. CC1C2Cc3ccc(O)cc3C1(C)CCN2CCc1ccc([N+](=O)[O-])cc1 (centres unmarked) [Compound 3] ... 2.7 nM
8. CC1C2Cc3ccc(O)cc3C1(C)CCN2CCc1ccc(C(F)(F)F)cc1 (centres unmarked) [Compound 9] ... 3 nM

---

Biological target: human μ-opioid receptor (OPRM1) (Homo sapiens, UniProt P35372)
Construct: host or cells: cAMP Hunter CHO-K1
Assay: cell-based
Format: cell-based
test_readout: MOR agonist potency / efficacy in words

1. C[C@H]1[C@H]2Cc3ccc(O)cc3[C@]1(C)CCN2CCCc1ccc([N+](=O)[O-])cc1 [Compound 31] ... little or no potency
2. C[C@H]1[C@H]2Cc3ccc(O)cc3[C@]1(C)CCN2CCCc1ccccc1 [Compound 24] ... little or no potency
3. C[C@H]1[C@H]2Cc3ccc(O)cc3[C@]1(C)CCN2CCC1CCN(C)CC1 [Compound 28] ... little or no potency
4. CC1C2Cc3ccc(O)cc3C1(C)CCN2CC=Cc1ccccc1 (stereo not shown) [Compound 25] ... little or no potency

---

Each entry below carries its recorded Emax.
Molecular target: human δ-opioid receptor (OPRD1) (Homo sapiens)
Assay: Forskolin-induced cAMP accumulation assay, DOR agonist mode
Settings: CHO-K1, read-out: DOR Agonist %Emax ± SEM
test_readout: Emax (%)

1) C[C@H]1[C@H]2Cc3ccc(O)cc3[C@]1(C)CCN2CCc1ccc(F)cc1 ... 73
2) CC1C2Cc3ccc(O)cc3C1(C)CCN2CCc1ccc(Br)cc1 (stereo not shown) ... 89
3) CC1C2Cc3ccc(O)cc3C1(C)CCN2CCc1ccccc1Cl (stereo not shown) ... 87
4) CC1C2Cc3ccc(O)cc3C1(C)CCN2CCc1cccc(Br)c1 (stereo not shown) ... 51
5) CC1C2Cc3ccc(O)cc3C1(C)CCN2CCc1cccc(F)c1 (stereo not shown) ... 86
6) CC1c2ccc(O)cc2[C@@]2(C)CCN(CCc3ccccc3)[C@@H]1[C@H]2C (single isomer, unassigned; (+)) [(+)-39] ... 94
7) CC1C2Cc3ccc(O)cc3C1(C)CCN2CCc1ccc(O)cc1 (stereo not shown) ... 84

---

Molecular target: human κ-opioid receptor (OPRK1) (Homo sapiens)
Sequence (P41145 whole entry): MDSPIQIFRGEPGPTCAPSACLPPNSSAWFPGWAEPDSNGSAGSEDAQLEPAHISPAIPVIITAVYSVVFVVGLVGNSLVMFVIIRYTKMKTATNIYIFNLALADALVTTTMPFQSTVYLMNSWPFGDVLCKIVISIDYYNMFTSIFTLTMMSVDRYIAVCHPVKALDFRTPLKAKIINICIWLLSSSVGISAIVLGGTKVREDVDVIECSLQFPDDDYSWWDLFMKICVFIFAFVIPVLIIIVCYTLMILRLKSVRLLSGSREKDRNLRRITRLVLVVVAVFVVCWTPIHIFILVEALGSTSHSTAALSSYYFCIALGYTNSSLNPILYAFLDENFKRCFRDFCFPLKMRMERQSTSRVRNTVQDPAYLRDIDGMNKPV
Experiment: Forskolin-induced cAMP accumulation assay, KOR agonist mode
Settings: CHO-K1, read-out: KOR Agonist %Emax ± SEM
test_readout: Emax

1. C=C1c2ccc(O)cc2[C@@]2(C)CCN(CCc3ccccc3)[C@@H]1[C@H]2C [(+)-38] ... 53%
2. CC1C2Cc3ccc(O)cc3C1(C)CCN2CCc1ccccc1Br (centres unmarked) ... 80%
3. CC1c2ccc(O)cc2[C@]2(C)CCN(CCc3ccccc3)[C@H]1[C@@H]2C (single isomer, unassigned; (-)) [(−)-39] ... 38%
4. C=C1c2ccc(O)cc2[C@]2(C)CCN(CCc3ccccc3)[C@H]1[C@@H]2C [(−)-38] ... 57%
5. CC1C2Cc3ccc(O)cc3C1(C)CCN2CCc1ccccc1[N+](=O)[O-] (centres unmarked) ... 23%

---

Biological target: human κ-opioid receptor (OPRK1) (Homo sapiens)
Experiment: Forskolin-induced cAMP accumulation assay, KOR agonist mode
Details: CHO-K1, read-out: KOR Agonist %Emax ± SEM
test_readout: Emax

1. CC1C2Cc3ccc(O)cc3C1(C)CCN2CCc1ccc(C(F)(F)F)cc1 (centres unmarked) ... 100%
2. CC1C2Cc3ccc(O)cc3C1(C)CCN2CCc1ccccc1C(F)(F)F (centres unmarked) ... 72%
3. CC1C2Cc3ccc(O)cc3C1(C)CCN2CCc1ccccc1F (centres unmarked) ... 45%
4. CC1C2Cc3ccc(O)cc3C1(C)CCN2CCc1ccc(O)cc1 (centres unmarked) ... 97%
5. Cc1ccc(CCN2CCC3(C)c4cc(O)ccc4CC2C3C)cc1 (centres unmarked) ... 93%
6. CC1C2Cc3ccc(O)cc3C1(C)CCN2CCc1ccc(Cl)cc1 (centres unmarked) ... 97%
7. COc1ccc(CCN2CCC3(C)c4cc(O)ccc4CC2C3C)cc1 (centres unmarked) ... 89%
8. CC1C2Cc3ccc(O)cc3C1(C)CCN2CCc1ccc(Cl)cc1Cl (centres unmarked) ... 93%
9. CC1C2Cc3ccc(O)cc3C1(C)CCN2CCc1ccc([N+](=O)[O-])cc1 (centres unmarked) ... 46%
10. C[C@H]1[C@H]2Cc3ccc(O)cc3[C@]1(C)CCN2CCC1CCN(C)CC1 ... 15%
11. CC1C2Cc3ccc(O)cc3C1(C)CCN2CCc1ccccc1Cl (centres unmarked) ... 57%

---

# Emax values compiled below
Biological target: human μ-opioid receptor (OPRM1) (Homo sapiens)
Construct: host or cells: cAMP Hunter CHO-K1
Test: cell-based
Assay type: cell-based
Details: read-out: MOR Agonist %Emax ± SEM
test_readout: Emax (%)

1) CC1C2Cc3ccc(O)cc3C1(C)CCN2CCc1ccccc1 (centres unmarked) ... 101
2) COc1ccc(CCN2CCC3(C)c4cc(O)ccc4CC2C3C)cc1 (centres unmarked) ... 103
3) CC1C2Cc3ccc(O)cc3C1(C)CCN2CCc1ccc(O)cc1 (centres unmarked) ... 102
4) CC1C2Cc3ccc(O)cc3C1(C)CCN2CC=Cc1ccccc1 (centres unmarked) ... 101
5) C[C@H]1[C@H]2Cc3ccc(O)cc3[C@]1(C)CCN2CCCc1ccccc1 ... 101
6) CC1C2Cc3ccc(O)cc3C1(C)CCN2CCc1cccc(C(F)(F)F)c1 (centres unmarked) ... 63
7) CC1C2Cc3ccc(O)cc3C1(C)CCN2CCc1ccccc1Br (centres unmarked) ... 101
8) CC1C2Cc3ccc(O)cc3C1(C)CCN2CCc1ccc(Br)cc1 (centres unmarked) ... 102
9) CC1c2ccc(O)cc2[C@@]2(C)CCN(CCc3ccccc3)[C@@H]1[C@H]2C (single isomer, unassigned; (+)) [(+)-39] ... 103
10) C[C@H]1[C@H]2Cc3ccc(O)cc3[C@]1(C)CCN2CCc1ccc(F)cc1 ... 100
11) CC1C2Cc3ccc(O)cc3C1(C)CCN2CCc1c(Cl)cccc1Cl (centres unmarked) ... 99
12) CC1C2Cc3ccc(O)cc3C1(C)CCN2CCc1ccccc1F (centres unmarked) ... 101
13) CC1c2ccc(O)cc2[C@]2(C)CCN(CCc3ccccc3)[C@H]1[C@@H]2C (single isomer, unassigned; (-)) [(−)-39] ... 102
14) CC1C2Cc3ccc(O)cc3C1(C)CCN2CCc1ccccc1[N+](=O)[O-] (centres unmarked) ... 101
15) CC1C2Cc3ccc(O)cc3C1(C)CCN2CCc1cccc(Br)c1 (centres unmarked) ... 78
16) C[C@@H]1[C@@H]2C(O)c3ccc(O)cc3[C@@]1(C)CCN2CCc1ccccc1 (single isomer, unassigned; (+)) [(+)-36] ... 103
17) CC1C2Cc3ccc(O)cc3C1(C)CCN2CCc1cccc([N+](=O)[O-])c1 (centres unmarked) ... 71
18) CC1C2Cc3ccc(O)cc3C1(C)CCN2CCc1cccc(F)c1 (centres unmarked) ... 100
19) CC1C2Cc3ccc(O)cc3C1(C)CCN2CCc1ccccc1Cl (centres unmarked) ... 101
20) CC1C2Cc3ccc(O)cc3C1(C)CCN2CCc1cccc(Cl)c1 (centres unmarked) ... 95
